# Target: AR (Homo sapiens, UniProt P10275)
# Sequence (P10275 whole entry): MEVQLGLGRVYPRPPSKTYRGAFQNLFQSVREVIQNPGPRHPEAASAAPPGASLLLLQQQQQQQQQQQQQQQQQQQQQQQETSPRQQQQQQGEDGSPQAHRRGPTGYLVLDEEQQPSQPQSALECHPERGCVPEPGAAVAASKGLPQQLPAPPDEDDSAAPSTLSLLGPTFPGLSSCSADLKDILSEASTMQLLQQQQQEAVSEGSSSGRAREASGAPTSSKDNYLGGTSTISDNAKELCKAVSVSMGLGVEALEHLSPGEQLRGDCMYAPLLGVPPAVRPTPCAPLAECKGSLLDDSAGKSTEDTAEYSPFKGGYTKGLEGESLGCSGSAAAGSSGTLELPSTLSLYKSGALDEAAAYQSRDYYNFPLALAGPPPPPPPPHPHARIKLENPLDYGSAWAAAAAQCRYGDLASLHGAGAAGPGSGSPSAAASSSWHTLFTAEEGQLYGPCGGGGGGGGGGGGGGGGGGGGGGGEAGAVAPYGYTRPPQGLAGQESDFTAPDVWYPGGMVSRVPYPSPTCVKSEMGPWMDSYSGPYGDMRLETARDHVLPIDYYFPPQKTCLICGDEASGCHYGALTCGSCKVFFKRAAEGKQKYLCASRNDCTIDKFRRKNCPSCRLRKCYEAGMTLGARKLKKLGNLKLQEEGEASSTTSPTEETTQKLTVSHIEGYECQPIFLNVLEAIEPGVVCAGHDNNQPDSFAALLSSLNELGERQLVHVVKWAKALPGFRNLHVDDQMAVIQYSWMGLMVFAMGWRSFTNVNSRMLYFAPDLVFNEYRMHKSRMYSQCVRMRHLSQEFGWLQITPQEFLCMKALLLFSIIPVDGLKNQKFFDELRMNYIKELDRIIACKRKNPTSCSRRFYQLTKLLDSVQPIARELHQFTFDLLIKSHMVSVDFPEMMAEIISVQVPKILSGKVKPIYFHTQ
# Assay: AR reporter gene assay in HEK293
# Format: cell-based
# Experimental Parameters: reporter gene assay, HEK293; agonist dihydrotestosterone 0.3 nM; read-out: AR antagonistic activity (IC50), AR reporter gene
Measure: IC50

A selection of reference data follows.
compound="CCCCn1c(=O)c2ccc(OC)cc2c2cc(C(O)(C(F)(F)F)C(F)(F)F)ccc21 [Compound 23]" result="> 20 µM"
compound="CCCCn1c(=O)c2ccc(C)cc2c2cc(C(O)(C(F)(F)F)C(F)(F)F)ccc21 [Compound 36]" result="6.4 µM"
compound="CCCCn1c(=O)c2ccc(Cl)cc2c2cc(C(O)(C(F)(F)F)C(F)(F)F)ccc21 [Compound 2]" result="5.2 µM"

Next compound, IC50 to be filled in.
Give a short answer stating reported IC50 for CCCCn1c(=O)c2cc(OC)ccc2c2cc(C(O)(C(F)(F)F)C(F)(F)F)ccc21 [Compound 22] .
1 µM
